system name: CDKs and other kinases (Homo sapiens, UniProt P50613)
Construct: other: CDK7H; residual activity (%) at 10 μM CDK7H; compound at 10 μM
Sequence (P50613 whole entry): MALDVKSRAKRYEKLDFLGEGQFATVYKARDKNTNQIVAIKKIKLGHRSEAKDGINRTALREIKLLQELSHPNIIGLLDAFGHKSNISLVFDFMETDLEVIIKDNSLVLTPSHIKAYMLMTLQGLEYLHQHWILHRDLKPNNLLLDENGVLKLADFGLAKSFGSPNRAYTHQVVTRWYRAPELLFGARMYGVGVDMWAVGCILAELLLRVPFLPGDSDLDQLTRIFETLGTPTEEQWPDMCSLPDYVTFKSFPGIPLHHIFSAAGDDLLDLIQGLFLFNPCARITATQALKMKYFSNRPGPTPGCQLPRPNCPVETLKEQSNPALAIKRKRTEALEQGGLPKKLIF
assay comment: Radiometric kinase assay (Eurofins Pharma Discovery or Reaction Biology Corporation Kinase Profiler)
Assay type: biochemical
cond: CDK7H; read-out: CDK inhibition, Ki (μM) CDK7H
measured parameter: Ki (µM)
Give the quantity in µM, number only.

// field: Ki; key: Cc1cnc(N[C@H]2CC[C@H](N)CC2)nc1-c1cnc2ccc(Nc3cccnc3)cn12 ; value = 2.24

// field: Ki; key: CC(C)(C)OC(=O)N1CCC(Nc2ncc(F)c(-c3cnc4ccccn34)n2)CC1 ; value = 1.75

// field: Ki; key: Cc1cnc(N[C@H]2CC[C@H](N)CC2)nc1-c1cnc2ccc(-c3cncnc3)cn12 ; value = 5.6

// field: Ki; key: Cc1cnc(N[C@H]2CC[C@H](N)CC2)nc1-c1cnc2ccc(Nc3ccc(F)nc3)cn12 ; value = 0.89

// field: Ki; key: Cc1cnc(N[C@H]2CC[C@H](N)CC2)nc1-c1cnc2ccc(NCc3ccc(F)cc3)cn12 ; value = 5.39

* * *

system name: CDK6/D3 (Homo sapiens, UniProt Q00534)
Sequence (Q00534 whole entry): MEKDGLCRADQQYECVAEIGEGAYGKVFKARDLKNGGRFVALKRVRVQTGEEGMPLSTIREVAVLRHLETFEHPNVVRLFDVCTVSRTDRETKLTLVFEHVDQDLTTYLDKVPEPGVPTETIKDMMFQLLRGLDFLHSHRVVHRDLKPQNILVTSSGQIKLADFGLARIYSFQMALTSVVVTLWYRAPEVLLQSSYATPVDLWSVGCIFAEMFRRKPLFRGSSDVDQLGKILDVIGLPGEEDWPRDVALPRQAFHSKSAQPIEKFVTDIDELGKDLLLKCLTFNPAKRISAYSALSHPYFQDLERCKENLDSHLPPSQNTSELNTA
Sequence (P30281 whole entry partner): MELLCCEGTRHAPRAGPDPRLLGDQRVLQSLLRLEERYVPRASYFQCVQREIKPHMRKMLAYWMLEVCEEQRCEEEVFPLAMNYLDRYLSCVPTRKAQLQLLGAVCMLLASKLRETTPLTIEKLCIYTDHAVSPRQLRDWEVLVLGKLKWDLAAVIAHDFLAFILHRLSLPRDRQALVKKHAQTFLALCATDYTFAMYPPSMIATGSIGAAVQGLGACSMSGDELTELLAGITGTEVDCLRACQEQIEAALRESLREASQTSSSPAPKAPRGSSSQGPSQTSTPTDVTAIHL
assay comment: ADP Glo Kinase assay CDK6/D3
Type: biochemical
cond: CDK6D3; compound at 10 μM; read-out: residual activity (%) at 10 μM CDK6D3
Rule: remaining activity at 10 µM below 50% gives rule met. Equal to or above 50% gives rule not met.

Prompt: Does this compound meet the criterion remaining activity at 10 µM < 50%? Cc1cnc(N[C@H]2CC[C@H](N)CC2)nc1-c1cnc2ccc(NC(=O)c3ccc(F)cc3)cn12
Response: rule not met

Prompt: Does this compound meet the criterion remaining activity at 10 µM < 50%? N[C@H]1CC[C@H](Nc2ncc(Cl)c(-c3cnc4c(-c5cccnc5)cc(C(F)(F)F)cn34)n2)CC1
Response: rule met

Prompt: Does this compound meet the criterion remaining activity at 10 µM < 50%? N[C@H]1CC[C@H](Nc2ncc(F)c(-c3cnc4ccc(-c5cccnc5)cn34)n2)CC1
Response: rule met

Prompt: Does this compound meet the criterion remaining activity at 10 µM < 50%? N[C@H]1CC[C@H](Nc2ncc(F)c(-c3cnc4ccc(Nc5cccnc5)cn34)n2)CC1
Response: rule met

Prompt: Does this compound meet the criterion remaining activity at 10 µM < 50%? N[C@H]1CC[C@H](Nc2ncc(F)c(-c3cnc4cc(Nc5cccnc5)ccn34)n2)CC1
Response: rule met

Prompt: Does this compound meet the criterion remaining activity at 10 µM < 50%? N[C@H]1CC[C@H](Nc2ncc(Cl)c(-c3cnc4ccc(-c5ccncc5)cn34)n2)CC1
Response: rule met

Prompt: Does this compound meet the criterion remaining activity at 10 µM < 50%? N[C@H]1CC[C@H](Nc2ncc(Cl)c(-c3cnc4ccc(-c5ccccc5)cn34)n2)CC1
Response: rule not met

Prompt: Does this compound meet the criterion remaining activity at 10 µM < 50%? COC(=O)CN[C@H]1CC[C@H](Nc2ncc(F)c(-c3cnc4ccccn34)n2)CC1
Response: rule met

Prompt: Does this compound meet the criterion remaining activity at 10 µM < 50%? Cc1cnc(N[C@H]2CC[C@H](N)CC2)nc1-c1cnc2cc(C(F)(F)F)c(Br)cn12
Response: rule met

Prompt: Does this compound meet the criterion remaining activity at 10 µM < 50%? N[C@H]1CC[C@H](Nc2ncc(Cl)c(-c3cnc4ccc(-c5cncnc5)cn34)n2)CC1
Response: rule not met

Prompt: Does this compound meet the criterion remaining activity at 10 µM < 50%? N[C@H]1CC[C@H](Nc2ncc(F)c(-c3cnc4ccc(-c5ccccc5)cn34)n2)CC1
Response: rule met

Prompt: Does this compound meet the criterion remaining activity at 10 µM < 50%? Cc1cnc(N[C@H]2CC[C@H](NC3CCN(C)CC3)CC2)nc1-c1cnc2ccc(-c3ccccc3)cn12
Response: rule not met

Prompt: Does this compound meet the criterion remaining activity at 10 µM < 50%? Cc1cnc(N[C@H]2CC[C@H](N)CC2)nc1-c1cnc2ccccn12
Response: rule met

Prompt: Does this compound meet the criterion remaining activity at 10 µM < 50%? Cc1cnc(N[C@H]2CC[C@H](N)CC2)nc1-c1cnc2ccc(-c3ccc(S(=O)(=O)N(C)C)cc3)cn12
Response: rule not met

Prompt: Does this compound meet the criterion remaining activity at 10 µM < 50%? Cc1cnc(N[C@H]2CC[C@H](N)CC2)nc1-c1cnc2ccc(Nc3ccncn3)cn12
Response: rule not met

Prompt: Does this compound meet the criterion remaining activity at 10 µM < 50%? N[C@H]1CC[C@H](Nc2ncc(Cl)c(-c3cnc4cc(-c5cccnc5)ccn34)n2)CC1
Response: rule met
